- assay.summary: NCI Yeast Anticancer Drug Screen. Data for the wt2 strain (AID 169);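 further: 0% = growth of vehicle-treated yeast cultures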
- condition.details: S. cerevisiae wt2 strain growth inhibition; at 33.0 µM; stronger effect = higher value
- Procedure: Growth inhibition of yeast strains with defined genetic alterations is measured as a screen for potential anti-cancer activity. Selected strains with alterations in DNA damage repair or cell cycle control were exposed to compounds and growth inhibition was measured relative to vehicle treated controls. The strain used in this assay is wt2
This is part of a sample that, as a whole, favours compounds with a hit. Of some 79,000 tested, about 15% had one in any assay.
Consider the following compounds; for each one, report its growth inhibition.
Give bare numbers, in %.

CC1CC(Br)C(=O)O1 (configuration not stated)
30
O=[N+]([O-])c1ccc(C=Cc2ccccc2)cc1.[C-]#[O+].[C-]#[O+].[C-]#[O+].[Cr]
80
C=C[C@H]1CN2CC[C@H]1C[C@@H]2[C@@H](O)c1ccnc2ccccc12
-2
CCOP(=S)(S)OCC.[Pd]
91
NCCc1ccc(OCc2ccccc2)c(OCc2ccccc2)c1
95
CC12CCC(C1)C(C)(C)C2OC(=O)c1ccccc1N (configuration not stated)
-8

Now for another entry.
response.value for Oc1ccc2nc3ccccc3nc2c1 (field: growth inhibition) = 27

src = PubChem BioAssay (NCI)
